Species on record: Rattus norvegicus
protocol.description: Open TG-GATES - Regimen: Single
Assay type: toxicity, organism-based, Sprague-Dawley
Parameters: regimen Single, gender Male, age 6 weeks
condition: in vivo, po, 0 mg/kg, 3 h, tissue Plasma, route gavage, dose level Control
property.label: ALT (IU/L)
Numbers only; they are read as IU/L.

-- ask Need ALT of O=[N+]([O-])c1ccc(O)c([N+](=O)[O-])c1 [2,4-DINITROPHENOL] , thanks.
-- reply 40.8

---
-- ask # ALT lookup, item CCOC(=O)C(C)(C)Oc1ccc(Cl)cc1 [CLOFIBRATE]
-- reply 37.6

-- ask Which ALT is reported for this molecule? C=C(C)[C@H]1Cc2c(ccc3c2O[C@@H]2COc4cc(OC)c(OC)cc4[C@@H]2C3=O)O1 [ROTENONE]
-- reply 35.8

-- ask Endpoint output: ALT of C[C@H]1O[C@H](O[C@H]2[C@H](O)[C@@H](O)[C@@H](O[C@H]3[C@H](O)[C@@H](O)C(O)O[C@@H]3CO)O[C@@H]2CO)[C@H](O)[C@@H](O)[C@@H]1N[C@H]1C=C(CO)[C@@H](O)[C@H](O)[C@H]1O (some centres undefined) [ACARBOSE] . Value?
-- reply 36

-- ask Give its ALT value. Item: OCCN1CCN(CCCN2c3ccccc3Sc3ccc(C(F)(F)F)cc32)CC1 [FLUPHENAZINE]
-- reply 34.8

-- ask Query (molecule): C[C@H]1C(=O)O[C@@H]2CCN3CC=C(COC(=O)[C@](C)(O)[C@]1(C)O)[C@H]23 [MONOCROTALINE] ; field requested: ALT
-- reply 38

###

Species on record: Rattus norvegicus
protocol.description: Open TG-GATES - Regimen: Daily Repeat
Assay type: toxicity, organism-based, Sprague-Dawley
Parameters: regimen Daily Repeat, gender Male, age 6 weeks
condition: in vivo, po, 0 mg/kg, […], tissue Blood, route gavage, dose level Control, time 28 day
// MCH lookup, one value per entry
# number then unit; no other words

-- ask Request the reported MCH associated with Cn1cc[nH]c1=S [METHIMAZOLE]
-- reply 19.3 pg

-- ask Return reported MCH; argument: CCOC(=O)C(C)(C)Oc1ccc(Cl)cc1 [CLOFIBRATE]
-- reply 19.3 pg

-- ask Name the recorded MCH for C[C@H]1C(=O)O[C@@H]2CCN3CC=C(COC(=O)[C@](C)(O)[C@]1(C)O)[C@H]23 [MONOCROTALINE] .
-- reply 19.7 pg

-- ask What does the data say about its MCH? Entry: C[C@H]1O[C@H](O[C@H]2[C@H](O)[C@@H](O)[C@@H](O[C@H]3[C@H](O)[C@@H](O)C(O)O[C@@H]3CO)O[C@@H]2CO)[C@H](O)[C@@H](O)[C@@H]1N[C@H]1C=C(CO)[C@@H](O)[C@H](O)[C@H]1O (some centres undefined) [ACARBOSE]
-- reply 19.9 pg

-- ask Which measured MCH value corresponds to OCCN1CCN(CCCN2c3ccccc3Sc3ccc(C(F)(F)F)cc32)CC1 [FLUPHENAZINE] ?
-- reply 19.7 pg

-- ask What value of MCH has been reported for the following compound? O=C1CN(/N=C/c2ccc([N+](=O)[O-])o2)C(=O)N1 [NITROFURANTOIN]
-- reply 19.8 pg

-- ask Entry O=[N+]([O-])c1ccc(O)c([N+](=O)[O-])c1 [2,4-DINITROPHENOL] has what MCH?
-- reply 19.6 pg

-- ask Endpoint output: MCH of C=C(C)[C@H]1Cc2c(ccc3c2O[C@@H]2COc4cc(OC)c(OC)cc4[C@@H]2C3=O)O1 [ROTENONE] . Value?
-- reply 19.7 pg

Please turn your attention to the following entry.
-- ask Look up MCH: Cc1cccc(C)c1OCC(C)N (centres undefined) [MEXILETINE]
-- reply 19.2 pg
